- System: ABCG4
- method: ABCG4 mRNA expression (real-time PCR)
- Assay type: cell-based, human
- assay_context: A2780/DOX, 10 µM combined with doxorubicin at IC25, 48 h
Label y for high-side ABCG4 Expression Difference (at or above 3) and n for low-side ABCG4 Expression Difference (below it).

Task item: Does the reported ABCG4 Expression Difference for `COc1cc([C@@H]2Oc3cc([C@H]4Oc5cc(O)cc(O)c5C(=O)[C@@H]4O)ccc3O[C@H]2CO)ccc1O` fall at or above the 3 mark?
Reply: y

Task item: Does the reported ABCG4 Expression Difference for COc1cc([C@@H]2Oc3cc(-c4oc5cc(O)cc(O)c5c(=O)c4O)ccc3O[C@H]2CO)ccc1O [Dehydrosilybin B, 2,3-dehydrosilybin B] fall at or above the 3 mark?
Reply: n

Task item: Does the reported ABCG4 Expression Difference for COc1cc(C2Oc3cc([C@H]4Oc5cc(O)cc(O)c5C(=O)[C@@H]4O)ccc3OC2CO)ccc1O (stereo partly drawn) fall at or above the 3 mark?
Reply: y

Task item: Does the reported ABCG4 Expression Difference for COc1cc(C2Oc3cc(-c4oc5cc(O)cc(O)c5c(=O)c4O)ccc3OC2CO)ccc1O (stereo not drawn) [Dehydrosilybin AB, 2,3-dehydrosilybin] fall at or above the 3 mark?
Reply: n

Task item: Does the reported ABCG4 Expression Difference for COc1cc([C@H]2Oc3cc(-c4oc5cc(O)cc(O)c5c(=O)c4O)ccc3O[C@@H]2CO)ccc1O [Dehydrosilybin A, 2,3-dehydrosilybin A] fall at or above the 3 mark?
Reply: n

Task item: Does the reported ABCG4 Expression Difference for `COc1cc([C@H]2Oc3cc([C@H]4Oc5cc(O)cc(O)c5C(=O)[C@@H]4O)ccc3O[C@@H]2CO)ccc1O` fall at or above the 3 mark?
Reply: y

====

- Tested on: TNF-α
- method: TNF-α release by LPS-induced macrophages (ELISA)
- Format: cell-based, mouse
- assay_context: Mus musculus, RAW264.7, read-out: TNF-α, concentration necessary to halve the release (IC50)
Catalogue of compounds with associated IC50
Only the number, expressed in µM, is required.

Task item: Please look up its IC50: COc1cc(C2Oc3cc(-c4oc5cc(O)cc(O)c5c(=O)c4O)ccc3OC2CO)ccc1O (stereo not drawn) [Dehydrosilybin AB, 2,3-dehydrosilybin]
Reply: 26.7

Next:
Task item: Please look up its IC50: COc1cc([C@H]2Oc3cc(-c4oc5cc(O)cc(O)c5c(=O)c4O)ccc3O[C@@H]2CO)ccc1O [Dehydrosilybin A, 2,3-dehydrosilybin A]
Reply: 20.7

Task item: Please look up its IC50: COc1cc([C@@H]2Oc3cc(-c4oc5cc(O)cc(O)c5c(=O)c4O)ccc3O[C@H]2CO)ccc1O [Dehydrosilybin B, 2,3-dehydrosilybin B]
Reply: 44.2

====

- Test system: ABCA2
- method: ABCA2 mRNA expression (real-time PCR)
- Format: cell-based, human
- assay_context: A2780/DOX, 10 µM combined with doxorubicin at IC25, 48 h
measured_attribute: ABCA2 Expression Difference
Form: value (number only, do not type unit).

These solved cases illustrate the format of a correct answer.
Task item: Please look up its ABCA2 Expression Difference: COc1cc(C2Oc3cc([C@H]4Oc5cc(O)cc(O)c5C(=O)[C@@H]4O)ccc3OC2CO)ccc1O (stereo partly drawn) [Silybin AB, silybin]
Reply: 1.207

Task item: Please look up its ABCA2 Expression Difference: COc1cc([C@H]2Oc3cc(-c4oc5cc(O)cc(O)c5c(=O)c4O)ccc3O[C@@H]2CO)ccc1O [Dehydrosilybin A, 2,3-dehydrosilybin A]
Reply: 1.105

Task item: Please look up its ABCA2 Expression Difference: COc1cc(C2Oc3cc(-c4oc5cc(O)cc(O)c5c(=O)c4O)ccc3OC2CO)ccc1O (stereo not drawn) [Dehydrosilybin AB, 2,3-dehydrosilybin]
Reply: 1.046

Task item: Please look up its ABCA2 Expression Difference: COc1cc([C@@H]2Oc3cc([C@H]4Oc5cc(O)cc(O)c5C(=O)[C@@H]4O)ccc3O[C@H]2CO)ccc1O [Silybin B, silybin B]
Reply: 0.903

Task item: Please look up its ABCA2 Expression Difference: COc1cc([C@@H]2Oc3cc(-c4oc5cc(O)cc(O)c5c(=O)c4O)ccc3O[C@H]2CO)ccc1O [Dehydrosilybin B, 2,3-dehydrosilybin B]
Reply: 1.078

// next entry
Task item: Please look up its ABCA2 Expression Difference: COc1cc([C@H]2Oc3cc([C@H]4Oc5cc(O)cc(O)c5C(=O)[C@@H]4O)ccc3O[C@@H]2CO)ccc1O [Silybin A, silybin A]
Reply: 1.239

====

- method: Viability of A2780/DOX cells (resazurin)
- assay_context: human
measured_attribute: viability at 50 µM

Task item: Please look up its viability at 50 µM: COc1cc([C@H]2Oc3cc(-c4oc5cc(O)cc(O)c5c(=O)c4O)ccc3O[C@@H]2CO)ccc1O [Dehydrosilybin A, 2,3-dehydrosilybin A]
Reply: < 80%

====

- System: ABCA1
- method: ABCA1 mRNA expression (real-time PCR)
- Type: cell-based, human
- assay_context: A2780/DOX, 10 µM combined with doxorubicin at IC25, 48 h
- Procedure: The A2780/DOX cell line was seeded into 5 cm Petri dishes with DMEM medium at 1 × 10^5 cell/mL. […] A Quant-iT RiboGreen RNA Assay Kit (Invitrogen) was used to determine the RNA concentration using the Infinite M200 plate reader (Tecan, Männedor, Switzerland). […] The experiment was performed using the ViiA7 Real-Time polymerase chain reaction (PCR) System (Life Technologies, Camarillo, CA, USA) with a 384-well block. […] After each extension phase, the fluorescence values were acquired. […]
measured_attribute: ABCA1 Expression Difference
Form: value (number only, do not type unit).

Task item: Please look up its ABCA1 Expression Difference: COc1cc([C@@H]2Oc3cc(-c4oc5cc(O)cc(O)c5c(=O)c4O)ccc3O[C@H]2CO)ccc1O [Dehydrosilybin B, 2,3-dehydrosilybin B]
Reply: 4.412

Task item: Please look up its ABCA1 Expression Difference: `COc1cc([C@H]2Oc3cc([C@H]4Oc5cc(O)cc(O)c5C(=O)[C@@H]4O)ccc3O[C@@H]2CO)ccc1O`
Reply: 2.702

Task item: Please look up its ABCA1 Expression Difference: COc1cc([C@H]2Oc3cc(-c4oc5cc(O)cc(O)c5c(=O)c4O)ccc3O[C@@H]2CO)ccc1O [Dehydrosilybin A, 2,3-dehydrosilybin A]
Reply: 4.172

Next:
Task item: Please look up its ABCA1 Expression Difference: `COc1cc([C@@H]2Oc3cc([C@H]4Oc5cc(O)cc(O)c5C(=O)[C@@H]4O)ccc3O[C@H]2CO)ccc1O`
Reply: 2.415

Task item: Please look up its ABCA1 Expression Difference: COc1cc(C2Oc3cc(-c4oc5cc(O)cc(O)c5c(=O)c4O)ccc3OC2CO)ccc1O (stereo not drawn) [Dehydrosilybin AB, 2,3-dehydrosilybin]
Reply: 3.122

Task item: Please look up its ABCA1 Expression Difference: COc1cc(C2Oc3cc([C@H]4Oc5cc(O)cc(O)c5C(=O)[C@@H]4O)ccc3OC2CO)ccc1O (stereo partly drawn)
Reply: 2.922

====

- assay_system: human recombinant P-gp (Homo sapiens, UniProt P08183)
- Construct: purchased Promega
- Sequence (P08183 whole entry): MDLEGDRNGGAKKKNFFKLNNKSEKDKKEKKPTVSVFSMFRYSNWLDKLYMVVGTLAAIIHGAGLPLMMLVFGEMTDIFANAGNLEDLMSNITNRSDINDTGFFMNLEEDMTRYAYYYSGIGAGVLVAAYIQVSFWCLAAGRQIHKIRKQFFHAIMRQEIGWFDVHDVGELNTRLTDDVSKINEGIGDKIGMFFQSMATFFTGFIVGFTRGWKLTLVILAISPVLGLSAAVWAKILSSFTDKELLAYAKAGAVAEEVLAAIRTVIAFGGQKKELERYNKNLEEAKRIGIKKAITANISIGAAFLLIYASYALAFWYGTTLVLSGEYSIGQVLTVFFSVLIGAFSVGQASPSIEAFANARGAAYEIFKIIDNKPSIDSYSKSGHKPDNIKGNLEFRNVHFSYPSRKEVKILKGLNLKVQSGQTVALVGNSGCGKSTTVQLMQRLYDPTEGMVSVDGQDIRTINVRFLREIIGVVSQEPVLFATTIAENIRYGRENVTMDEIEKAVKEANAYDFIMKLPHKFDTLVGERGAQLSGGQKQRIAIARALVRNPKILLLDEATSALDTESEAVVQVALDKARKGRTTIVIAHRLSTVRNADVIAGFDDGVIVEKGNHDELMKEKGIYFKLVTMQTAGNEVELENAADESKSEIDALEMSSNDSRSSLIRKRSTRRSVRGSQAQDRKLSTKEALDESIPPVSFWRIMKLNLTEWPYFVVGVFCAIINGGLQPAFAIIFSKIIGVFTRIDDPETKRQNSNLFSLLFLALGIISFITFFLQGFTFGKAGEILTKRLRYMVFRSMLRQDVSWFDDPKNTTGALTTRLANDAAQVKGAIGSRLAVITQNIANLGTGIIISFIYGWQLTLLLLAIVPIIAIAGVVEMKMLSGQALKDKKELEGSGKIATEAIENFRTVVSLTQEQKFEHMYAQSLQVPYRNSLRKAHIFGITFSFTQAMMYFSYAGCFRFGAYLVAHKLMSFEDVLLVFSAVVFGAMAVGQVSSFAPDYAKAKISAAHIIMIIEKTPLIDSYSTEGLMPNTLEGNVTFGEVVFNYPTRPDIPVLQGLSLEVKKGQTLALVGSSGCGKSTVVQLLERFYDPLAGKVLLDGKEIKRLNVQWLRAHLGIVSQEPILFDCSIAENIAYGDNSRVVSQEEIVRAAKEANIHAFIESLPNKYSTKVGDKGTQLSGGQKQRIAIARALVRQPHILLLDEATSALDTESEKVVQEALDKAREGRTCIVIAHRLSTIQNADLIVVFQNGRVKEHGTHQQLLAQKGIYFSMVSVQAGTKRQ
- method: biochemical
Catalogue of compounds with associated pIC50
Please keep in mind that pIC50 is minus log10 of the molar concentration; only the number is needed.

These solved cases illustrate the format of a correct answer.
Task item: Please look up its pIC50: COc1cc([C@H]2Oc3cc(-c4oc5cc(O)cc(O)c5c(=O)c4O)ccc3O[C@@H]2CO)ccc1O [Dehydrosilybin A, 2,3-dehydrosilybin A]
Reply: 4.22

Task item: Please look up its pIC50: `COc1cc([C@@H]2Oc3cc([C@H]4Oc5cc(O)cc(O)c5C(=O)[C@@H]4O)ccc3O[C@H]2CO)ccc1O`
Reply: 4.28

Task item: Please look up its pIC50: `COc1cc([C@H]2Oc3cc([C@H]4Oc5cc(O)cc(O)c5C(=O)[C@@H]4O)ccc3O[C@@H]2CO)ccc1O`
Reply: 4.37

Next:
Task item: Please look up its pIC50: COc1cc(C2Oc3cc(-c4oc5cc(O)cc(O)c5c(=O)c4O)ccc3OC2CO)ccc1O (stereo not drawn) [Dehydrosilybin AB, 2,3-dehydrosilybin]
Reply: 4.68

Task item: Please look up its pIC50: COc1cc([C@@H]2Oc3cc(-c4oc5cc(O)cc(O)c5c(=O)c4O)ccc3O[C@H]2CO)ccc1O [Dehydrosilybin B, 2,3-dehydrosilybin B]
Reply: 4.39

Task item: Please look up its pIC50: COc1cc(C2Oc3cc([C@H]4Oc5cc(O)cc(O)c5C(=O)[C@@H]4O)ccc3OC2CO)ccc1O (stereo partly drawn)
Reply: 4.49

====

- assay_system: acetylcholinesterase (Homo sapiens, UniProt P22303)
- Sequence (P22303 32-614, species assumed): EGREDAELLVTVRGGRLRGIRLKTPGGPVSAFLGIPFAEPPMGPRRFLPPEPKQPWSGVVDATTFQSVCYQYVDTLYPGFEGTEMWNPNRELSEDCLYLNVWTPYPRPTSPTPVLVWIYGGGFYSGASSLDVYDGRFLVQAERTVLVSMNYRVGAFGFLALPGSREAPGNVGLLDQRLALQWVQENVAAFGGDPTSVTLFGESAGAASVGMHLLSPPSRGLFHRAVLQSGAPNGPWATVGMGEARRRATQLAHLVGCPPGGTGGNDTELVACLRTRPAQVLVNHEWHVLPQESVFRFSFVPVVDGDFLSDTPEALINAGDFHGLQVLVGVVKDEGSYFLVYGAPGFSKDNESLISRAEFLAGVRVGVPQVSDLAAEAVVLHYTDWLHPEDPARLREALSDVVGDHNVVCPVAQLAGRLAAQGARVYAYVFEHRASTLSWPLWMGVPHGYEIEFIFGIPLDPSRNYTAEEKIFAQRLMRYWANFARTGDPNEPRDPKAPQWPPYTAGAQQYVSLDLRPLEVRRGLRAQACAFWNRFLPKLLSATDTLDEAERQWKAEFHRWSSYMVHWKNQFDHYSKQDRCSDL
Catalogue of molecules with associated IC50
Only the number, expressed in µM, is required.

These solved cases illustrate the format of a correct answer.
Task item: Please look up its IC50: COc1cc([C@H]2Oc3cc(-c4oc5cc(O)cc(O)c5c(=O)c4O)ccc3O[C@@H]2CO)ccc1O [Dehydrosilybin A, 2,3-dehydrosilybin A]
Reply: 6.9

Task item: Please look up its IC50: COc1cc(C2Oc3cc(-c4oc5cc(O)cc(O)c5c(=O)c4O)ccc3OC2CO)ccc1O (stereo not drawn) [Dehydrosilybin AB, 2,3-dehydrosilybin]
Reply: 2.7

Task item: Please look up its IC50: `COc1cc([C@@H]2Oc3cc([C@H]4Oc5cc(O)cc(O)c5C(=O)[C@@H]4O)ccc3O[C@H]2CO)ccc1O`
Reply: 83.7

Next:
Task item: Please look up its IC50: `COc1cc([C@H]2Oc3cc([C@H]4Oc5cc(O)cc(O)c5C(=O)[C@@H]4O)ccc3O[C@@H]2CO)ccc1O`
Reply: 181

Task item: Please look up its IC50: COc1cc(C2Oc3cc([C@H]4Oc5cc(O)cc(O)c5C(=O)[C@@H]4O)ccc3OC2CO)ccc1O (stereo partly drawn)
Reply: 22.6

Task item: Please look up its IC50: COc1cc([C@@H]2Oc3cc(-c4oc5cc(O)cc(O)c5c(=O)c4O)ccc3O[C@H]2CO)ccc1O [Dehydrosilybin B, 2,3-dehydrosilybin B]
Reply: 6.8
